What follows is a collection of pKi values obtained with human σ1 receptor (Homo sapiens).
Sequence (Q99720 whole entry): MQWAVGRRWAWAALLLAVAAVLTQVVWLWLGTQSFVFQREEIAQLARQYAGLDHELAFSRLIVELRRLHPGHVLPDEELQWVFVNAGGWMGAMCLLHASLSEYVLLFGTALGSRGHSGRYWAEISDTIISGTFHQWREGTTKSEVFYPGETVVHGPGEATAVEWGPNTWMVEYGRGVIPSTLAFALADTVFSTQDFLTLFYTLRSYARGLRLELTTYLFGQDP
pKi: −log10 of the molar value.

Field: example entries. Status: answers known.
smiles repr	tgt	experimental value
CN(CCc1ccccc1)[C@H]1CC[C@@]2(CC1)CN(Cc1ccccc1)CC1(CC1)O2	human σ1 receptor (Homo sapiens)	> 7.00
CCN1CC(C)(C)O[C@]2(CC[C@@H](N(C)Cc3ccccc3)CC2)C1	human σ1 receptor (Homo sapiens)	> 7.00
CN(CCc1ccccc1)[C@H]1CC[C@@]2(CC1)CN(C(=O)c1ccccc1)CC1(CC1)O2	human σ1 receptor (Homo sapiens)	> 6.30
CCN1C[C@]2(CC[C@H](NC)CC2)OC2(CC2)C1=O	human σ1 receptor (Homo sapiens)	≤ 6.30
O=C1N(c2ccccc2)C[C@]2(CC[C@@H](NCc3ccccc3)CC2)OC12CC2	human σ1 receptor (Homo sapiens)	≤ 6.30

Req: Please look up its pKi: "CCN1C[C@]2(CC[C@@H](N(C)Cc3ccccc3)CC2)OC(C)(C)C1=O"
Resp: > 6.30

Req: Please look up its pKi: "CCN1C[C@]2(CC[C@H](NC)CC2)OCC1=O"
Resp: ≤ 6.30

Req: Please look up its pKi: "CN(CCc1ccccc1)[C@H]1CC[C@]2(CC1)CN(c1ccccc1)C(=O)C1(CC1)O2"
Resp: > 6.30

Req: Please look up its pKi: "CCN1CC(C)(C)O[C@]2(CC[C@@H](N(C)CCc3ccccc3)CC2)C1"
Resp: > 7.00

Req: Please look up its pKi: "CCN1C[C@]2(CC[C@@H](NCCc3ccccc3)CC2)OC2(CC2)C1=O"
Resp: > 7.00

Req: Please look up its pKi: "CN(CCc1ccccc1)[C@H]1CC[C@@]2(CC1)CN(c1ccccc1)C(=O)C1(CC1)O2"
Resp: > 6.30

Req: Please look up its pKi: "CCN1C[C@]2(CC[C@H](N(C)CCc3ccccc3)CC2)OC2(CC2)C1=O"
Resp: > 7.00

Req: Please look up its pKi: "CCN1C[C@]2(CC[C@@H](N(C)CCc3ccccc3)CC2)OC(C)(C)C1=O"
Resp: > 7.00

Req: Please look up its pKi: "CN(Cc1ccccc1)[C@H]1CC[C@]2(CC1)CN(c1ccccc1)CC1(CC1)O2"
Resp: > 7.00

Req: Please look up its pKi: "CN[C@H]1CC[C@]2(CC1)CN(c1ccccc1)C(=O)C1(CC1)O2"
Resp: ≤ 6.30

Req: Please look up its pKi: "CCN1C[C@]2(CC[C@@H](N(C)Cc3ccccc3)CC2)OC2(CC2)C1=O"
Resp: > 7.00

Req: Please look up its pKi: "CN(Cc1ccccc1)[C@H]1CC[C@]2(CC1)CN(C(=O)c1ccccc1)CC1(CC1)O2"
Resp: > 6.30
